# System: primary AML cell specimen AML03
# Assay Details: Primary AML cell assay
# Assay type: cell-based
# Assay Conditions: Homo sapiens, 24 h
Measurement Type: pEC50
Would you please state pEC50, meaning minus log10 of the concentration in mol/L, as a bare number?

1) C=C1C(=O)O[C@@H]2[C@H]3O[C@]3(C)CC/C=C(\C)CC[C@@H]12 [compound 1, parthenolide] = 5.30

Read the next record carefully.
Exercise: State the recorded pEC50 for this entry: C=C1C(=O)O[C@H]2[C@H]1CC/C(COC(=O)OCCCCCOC(=O)OC/C1=C/CC[C@@]3(C)O[C@H]3[C@H]3OC(=O)C(=C)[C@@H]3CC1)=C\CC[C@@]1(C)O[C@@H]21
Solution: 5.92
